We begin with a simple list: items and their reported solubility kinetic.
# ASSAY SETUP: buffer; pH 7.4; 200.0 µM
Report the value in µg/mL with no unit label.

Consider the following illustrative entries.
CHEM SMILES	solubility kinetic / µg/mL
CC(C)(C)OC(=O)N1CCC(CNC(=O)c2ccc(F)cc2F)CC1	51
CSc1ncccc1C(=O)OCC(=O)C(C)(C)C	39.6

Now for a further compound.
For the compound Cn1c(=O)[nH]c(=O)c2c1[nH]c(=S)n2Cc1ccc(Cl)cc1 , give its measured solubility kinetic value.
42.3

====

# ASSAY SETUP: buffer; pH 7.4; 200.0 µM
RECORDED ENDPOINT: solubility kinetic (µg/mL)
// return numeric value only (unit: µg/mL, not printed)

CHEM SMILES	solubility kinetic [µg/mL]
Cc1ccc(N2CCN(S(=O)(=O)N3CCCCC3)CC2)c(C)c1	3.8
COc1ccc(S(=O)(=O)Oc2cc(C(=S)N3CCOCC3)ccc2OC)cc1	25.4
O=C(CC(=O)Nc1nc(C23CC4CC(CC(C4)C2)C3)cs1)NCCO	50.8

// fetch solubility kinetic given entry O=C(c1ccc(Cl)cc1[N+](=O)[O-])N1CCc2ccccc2C1
6.1

Name the recorded solubility kinetic of the molecule listed here: Cc1ccc(C23CC4CC(CC(C(=O)N(C)C)(C4)C2)C3)cc1
2.4

Supply recorded solubility kinetic for Cc1cc([N+](=O)[O-])ccc1NC(=S)NC1CCCC1 here.
21.9

====

# ASSAY SETUP: buffer; pH 7.4; 200.0 µM
Documented solubility kinetic across a set of compounds

Return value of solubility kinetic for input COC(=O)c1ccc(CO/N=C/c2ccc(OC)cc2)o1 , no commentary.
13.9 µg/mL

====

# ASSAY SETUP: buffer; pH 7.4; 200.0 µM
I would appreciate it if you labelled entries True when solubility kinetic is 5 µg/mL or higher, otherwise False.

Could you verify whether the entry Cc1ccc(NC(=O)COC(=O)c2ccco2)cc1C shows solubility kinetic of no less than 5 µg/mL?
True

Dear colleague, could you confirm whether FC(F)(F)c1nc(NCc2cccnc2)c2ccccc2n1 has solubility kinetic at or above 5 µg/mL?
False

Is solubility kinetic at least 5 µg/mL? Consider CCOn1c(=O)c(=O)n(OC)c2ccccc21
True

Hi team, for O=Cc1ccc(OCc2cn3ccccc3n2)cc1 , is the recorded solubility kinetic at or above 5 µg/mL?
True

API: above_or_equal(metric=solubility kinetic, cutoff=5 µg/mL) for item CSc1nc2c(c(=O)[nH]1)C(c1cccc(Cl)c1)CC(=O)N2 (stereo not given)
False

Answer whether solubility kinetic of CC(C)CNC(=O)COC(=O)c1c2c(nc3ccccc13)CCC2 is greater than or equal to 5 µg/mL.
True

Could you verify whether the entry N#Cc1ccccc1NC(=O)COC(=O)CN1C(=O)C2CCCCC2C1=O (stereo not given) shows solubility kinetic of no less than 5 µg/mL?
True

API: above_or_equal(metric=solubility kinetic, cutoff=5 µg/mL) for item COC(=O)C(Cc1c[nH]c2ccccc12)NC(=O)C1CC1 (stereo not given)
True

solubility kinetic >= 5 µg/mL for CC(NC(=O)NC(=O)c1ccc(Cl)cc1)c1ccccc1 (stereo not given) ?
False

Form field: solubility kinetic at least 5 µg/mL? Entry: O=S(=O)(NCc1nc(-c2ccccc2)no1)c1ccc(F)cc1
True
